# Measured Target: human glucagon receptor (human) (UniProt P47871)
# Sequence (P47871 26-477): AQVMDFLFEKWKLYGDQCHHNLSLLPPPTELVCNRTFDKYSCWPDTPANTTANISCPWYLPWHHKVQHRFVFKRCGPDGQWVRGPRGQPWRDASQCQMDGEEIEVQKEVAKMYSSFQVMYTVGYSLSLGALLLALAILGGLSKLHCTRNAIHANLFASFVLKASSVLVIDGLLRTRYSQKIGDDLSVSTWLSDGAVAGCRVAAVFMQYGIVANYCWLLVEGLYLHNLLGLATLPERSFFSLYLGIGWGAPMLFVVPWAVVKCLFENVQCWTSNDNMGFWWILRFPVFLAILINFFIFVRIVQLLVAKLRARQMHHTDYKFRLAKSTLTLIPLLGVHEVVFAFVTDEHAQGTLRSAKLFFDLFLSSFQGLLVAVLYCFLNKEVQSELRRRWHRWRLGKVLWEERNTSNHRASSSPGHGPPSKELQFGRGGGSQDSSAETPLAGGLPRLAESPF
# Protocol Notes: cell-based or functional assay
Starred links: 1 amine or outer side, 2 acyl side, 3 side chain; linkers in the order of their positions; H or OH if unused. Non-standard residues stand in square brackets, D forms with d. Groups on a side chain read outwards from the residue. No end group written: not given here. *: point of attachment. C20 diacid = O=C(O)CCCCCCCCCCCCCCCCCCC(=O)*; γGlu = O=C(O)[C@H](CCC(=O)[*:2])N[*:1]; NMeY = CN[C@@H](Cc1ccc(O)cc1)C(=O)O; αMeF = C[C@](N)(Cc1ccccc1)C(=O)O; αMeL = CC(C)C[C@](C)(N)C(=O)O; AEEA = NCCOCCOCC(=O)O; Aib = CC(C)(N)C(=O)O
Field: Relative cAMP EC50. Provide a value for each of the binders that follow.
Hi! Could you send only the number? It should be in nM, unit omitted.

The recorded Relative cAMP EC50 for entry YXQGTXTSDYSIXLDXKAQXAFIEYLEEGGPSSGAPPPE (not fully specified; synthetic construct; SITE 2: note = 2-Aminoisobutyric Acid; SITE 6: note = alpha-methyl-L-phenylalanine; SITE 13: note = alpha-methyl-leucine; SITE 16: note = L-ornithine; SITE 17: note = Lysine is chemically modified through conjugation of the epsilon-amino group of the Lysine side chain with (2-[2)) [Example 397] equals 5.22

The recorded Relative cAMP EC50 for entry YXQGTFTSDFSXXLDKKAQXAFIEYLLAGGPSSGAPPPSEG (synthetic construct; SITE 2: note = 2-Aminoisobutyric Acid; SITE 12: note = L-ornithine; SITE 13: note = alpha-methyl-leucine; SITE 17: note = Lysine is chemically modified through conjugation of the epsilon-amino group of the Lysine side chain with (2-[2-(2-Amino-ethoxy)-ethoxy]-acetyl)-(gamma-Glu)) [Example 60] equals 8.96

The recorded Relative cAMP EC50 for entry YXQGTXTSDXXIXLDXKAQXEFIEXLVEGGPSSGAPPPSGSE (synthetic construct; SITE 2: note = 2-Aminoisobutyric Acid; SITE 6: note = alpha-methyl-2-fluoro-L-phenylalanine; SITE 10: note = 3-(4-Pyridyl)-L-alanine; SITE 11: note = alpha-methyl-L-serine; SITE 13: note = alpha-methyl-leucine; SITE 16: note = L-ornithine; SITE 17: note = Lysine is chemically mo) [Example 751] equals 1.9

The recorded Relative cAMP EC50 for entry YXQGTXTSDXXIXLDXKAQXEFIEXLIEGGPPSXXPPPSGSE (non-natural residues; lysine acylated AEEA-γGlu-C18 diacid; C-terminal amide; synthetic construct; SITE 2: note = 2-Aminoisobutyric Acid; SITE 6: note = alpha-methyl-2-fluoro-L-phenylalanine; SITE 10: note = 3-(4-Pyridyl)-L-alanine; SITE 11: note = alpha-methyl-L-serine; SITE 13: note = alpha-methyl-leucine; SITE 16: note = L-ornithine; SITE 17: note = Lysine is chemically mo) [Example 1198] equals 1.8

The recorded Relative cAMP EC50 for entry Y[Aib]QGTFTSDYSK[αMeL]LDKK([AEEA-γGlu-C20 diacid])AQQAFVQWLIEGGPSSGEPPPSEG-NH2 [Example 315] equals 4.05

The recorded Relative cAMP EC50 for entry YXQGTFTSDFSQXLDKKAQXAFIEWLLEGGPSSGAPPPEGS (synthetic construct; SITE 2: note = 2-Aminoisobutyric Acid; SITE 13: note = alpha-methyl-leucine; SITE 17: note = Lysine is chemically modified through conjugation of the epsilon-amino group of the Lysine side chain with (2-[2-(2-Amino-ethoxy)-ethoxy]-acetyl)-(gamma-Glu)-CO-(CH2) 16-CO2H; SITE 20: n) [Example 774] equals 13.7

The recorded Relative cAMP EC50 for entry [NMeY][Aib]QGT[αMeF]TSDYSSLLDKIAAK([AEEA-AEEA-γGlu-C20 diacid])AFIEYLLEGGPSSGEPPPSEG-NH2 [Example 297] equals 3.26

The recorded Relative cAMP EC50 for entry YXQGTFTSDFSXXLDKKAQXAFIEYLLEGGPSSGAPPXGGS (non-natural residues; lipidated Lys AEEA-γGlu-C18 diacid; C-term amide; synthetic construct; SITE 2: note = 2-Aminoisobutyric Acid; SITE 12: note = L-ornithine; SITE 13: note = alpha-methyl-leucine; SITE 17: note = Lysine is chemically modified through conjugation of the epsilon-amino group of the Lysine side chain with (2-[2-(2-Amino-ethoxy)-ethoxy]-acetyl)-(gamma-Glu)) [Example 237] equals 3.77

The recorded Relative cAMP EC50 for entry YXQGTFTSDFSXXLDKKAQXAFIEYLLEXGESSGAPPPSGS (non-natural residues; lipidated Lys; C-terminal amide; synthetic construct; SITE 2: note = 2-Aminoisobutyric Acid; SITE 12: note = L-ornithine; SITE 13: note = alpha-methyl-leucine; SITE 17: note = Lysine is chemically modified through conjugation of the epsilon-amino group of the Lysine side chain with (2-[2-(2-Amino-ethoxy)-ethoxy]-acetyl)-(gamma-Glu)) [Example 240] equals 2.02

The recorded Relative cAMP EC50 for entry Y[Aib]QGTFTSDYSK[αMeL]LDKKAQQAFVQWLIE[dA]GPSSGEPPPSEG-NH2 (not fully specified (residue 17)) [Example 342] equals 10.2

The recorded Relative cAMP EC50 for entry YXQGTXTSDXSIXLDKKAQXXFIEYLAEGGPSSGEPPPEGSEE (synthetic construct; SITE 2: note = 2-Aminoisobutyric Acid; SITE 6: note = alpha-methyl-2-fluoro-L-phenylalanine; SITE 10: note = 3-(4-Pyridyl)-L-alanine; SITE 13: note = alpha-methyl-leucine; SITE 17: note = Lysine is chemically modified through conjugation of the epsilon-amino group of the Lysine) [Example 650 (SEQ ID NO: 656)] equals 16.2

The recorded Relative cAMP EC50 for entry YXQGTXTSDXSILLDKKAQXAFIEYLEEGGPSSGAPPPS (not fully specified; synthetic construct; SITE 2: note = 2-Aminoisobutyric Acid; SITE 6: note = alpha-methyl-2-fluoro-L-phenylalanine; SITE 10: note = 3-(4-Pyridyl)-L-alanine; SITE 17: note = Lysine is chemically modified through conjugation of the epsilon-amino group of the Lysine side chain with (gamma-Glu)2-CO-(CH2)1) [Example 413] equals 6.3

The recorded Relative cAMP EC50 for entry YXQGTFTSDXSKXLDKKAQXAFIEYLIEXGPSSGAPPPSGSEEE (synthetic construct; SITE 2: note = 2-Aminoisobutyric Acid; SITE 10: note = 3-(4-Pyridyl)-L-alanine; SITE 13: note = alpha-methyl-leucine; SITE 17: note = Lysine is chemically modified through conjugation of the epsilon-amino group of the Lysine side chain with (2-[2-(2-Amino-ethoxy)-ethoxy]-acetyl)) [Example 903] equals 12.9

The recorded Relative cAMP EC50 for entry YXQGTFTSDXSQXLDKKAQXAFIEXLIEXGPSSGAPPPSGEE (Aib, 4Pal, αMeL, Me4Pal, acylated K, C-terminal amide; synthetic construct; SITE 2: note = 2-Aminoisobutyric Acid; SITE 10: note = 3-(4-Pyridyl)-L-alanine; SITE 13: note = alpha-methyl-leucine; SITE 17: note = Lysine is chemically modified through conjugation of the epsilon-amino group of the Lysine side chain with (gamma-Glu)2-CO-(CH2)16-CO2H; SITE 20:) [Example 1121] equals 8.83

The recorded Relative cAMP EC50 for entry [NMeY][Aib]QGT[αMeF]TSDYSILLDKIAAK([AEEA-AEEA-γGlu-C20 diacid])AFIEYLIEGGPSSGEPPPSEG-NH2 [Example 299] equals 2.54

The recorded Relative cAMP EC50 for entry YXQGTFTSDFSXXLDKKAQXAFIEWLLEGGHSSGAPPPEGS (synthetic construct; SITE 2: note = 2-Aminoisobutyric Acid; SITE 12: note = L-ornithine; SITE 13: note = alpha-methyl-leucine; SITE 17: note = Lysine is chemically modified through conjugation of the epsilon-amino group of the Lysine side chain with (2-[2-(2-Amino-ethoxy)-ethoxy]-acetyl)-(gamma-Glu)) [Example 126] equals 6.81

The recorded Relative cAMP EC50 for entry YXQGTXTSDYSIXLDKKAQXAFIEYLLETGPSSGAPPPSEG (synthetic construct; SITE 2: note = 2-Aminoisobutyric Acid; SITE 6: note = alpha-methyl-2-fluoro-L-phenylalanine; SITE 13: note = alpha-methyl-leucine; SITE 17: note = Lysine is chemically modified through conjugation of the epsilon-amino group of the Lysine side chain with (2-[2-(2-Amino-ethoxy)-et)) [Example 417] equals 2.83

The recorded Relative cAMP EC50 for entry YXQGTFTSDXSQXLDXKAQXAFIQXLIEGGPSSGAPPPSGSEE (Aib, 4Pal, αMeL, Orn, Me4Pal, αMeY; acylated Lys; C-terminal amide; synthetic construct; SITE 2: note = 2-Aminoisobutyric Acid; SITE 10: note = 3-(4-Pyridyl)-L-alanine; SITE 13: note = alpha-methyl-leucine; SITE 16: note = L-ornithine; SITE 17: note = Lysine is chemically modified through conjugation of the epsilon-amino group of the Lysine side chain with D-Glutami) [Example 1072] equals 10.5

The recorded Relative cAMP EC50 for entry YXQGTFTSDXSQXLDKKAQXAFIEXLIEXGPSSGEPPPSGE (Aib, 4Pal, αMeL, Me4Pal; acylated Lys; C-terminal amide; synthetic construct; SITE 2: note = 2-Aminoisobutyric Acid; SITE 10: note = 3-(4-Pyridyl)-L-alanine; SITE 13: note = alpha-methyl-leucine; SITE 17: note = Lysine is chemically modified through conjugation of the epsilon-amino group of the Lysine side chain with (gamma-Glu)2-CO-(CH2)16-CO2H; SITE 20:) [Example 1123] equals 5.53

The recorded Relative cAMP EC50 for entry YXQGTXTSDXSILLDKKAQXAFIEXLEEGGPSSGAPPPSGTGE (synthetic construct; SITE 2: note = 2-Aminoisobutyric Acid; SITE 6: note = alpha-methyl-2-fluoro-L-phenylalanine; SITE 10: note = 3-(4-Pyridyl)-L-alanine; SITE 17: note = Lysine is chemically modified through conjugation of the epsilon-amino group of the Lysine side chain with (gamma-Glu)2-CO-(CH2)1) [Example 664 (SEQ ID NO: 670)] equals 2.12

The recorded Relative cAMP EC50 for entry YXQGTFTSDXSQXLDXKAQXAFIEXLIAGGPSSGAPPPSGSEE (non-natural residues; C18 diacid-γ-Glu acyl on Lys; C-terminal amide; synthetic construct; SITE 2: note = 2-Aminoisobutyric Acid; SITE 10: note = 3-(4-Pyridyl)-L-alanine; SITE 13: note = alpha-methyl-leucine; SITE 16: note = L-ornithine; SITE 17: note = Lysine is chemically modified through conjugation of the epsilon-amino group of the Lysine side chain with D-Glutami) [Example 1074] equals 22.8

The recorded Relative cAMP EC50 for entry Y[Aib]QGTFTSDYSI[αMeL]LDKQAAKQFVEWLLA[Aib]GPSSGEPPPSEG (not fully specified (residue 20)) [Example 329] equals 3.47
